B1: library; numbered along this chain (parent)
chain: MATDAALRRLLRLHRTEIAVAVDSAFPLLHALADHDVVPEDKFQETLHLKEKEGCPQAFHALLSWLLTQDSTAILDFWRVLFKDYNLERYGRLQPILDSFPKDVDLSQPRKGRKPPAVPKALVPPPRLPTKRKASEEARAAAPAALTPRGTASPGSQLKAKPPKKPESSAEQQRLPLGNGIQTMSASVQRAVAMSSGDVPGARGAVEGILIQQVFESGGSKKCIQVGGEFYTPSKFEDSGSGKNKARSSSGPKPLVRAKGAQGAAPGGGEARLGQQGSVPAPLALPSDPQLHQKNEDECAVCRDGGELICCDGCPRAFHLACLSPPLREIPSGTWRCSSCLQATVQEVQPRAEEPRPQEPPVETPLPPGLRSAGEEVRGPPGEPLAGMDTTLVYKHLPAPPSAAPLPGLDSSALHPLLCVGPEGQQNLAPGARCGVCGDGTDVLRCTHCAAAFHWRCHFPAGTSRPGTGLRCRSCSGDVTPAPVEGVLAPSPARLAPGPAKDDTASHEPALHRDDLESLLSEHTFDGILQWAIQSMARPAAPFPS

- Variants of: B1
- MEASUREMENT_PROTOCOL: AIRE transcriptional activation functional score (insulin promoter-GFP; nonsense median 0, synonymous median 1) (normalised score); higher = higher AIRE activity (more reporter activation)
- STATED_CONDITIONS: with insulin promoter-GFP reporter in HEK293
Label Condition met when AIRE transcriptional activation functional score is at or above 0.9; otherwise label Condition not met.

The following variants have reported results that may help.
V20Y : Condition not met
R356W : Condition met

// query Item `Q262K` with AIRE transcriptional activation functional score of 0.9 or above?
// result Condition met

// query Does AIRE transcriptional activation functional score meet or surpass 0.9 for `L529P` ?
// result Condition not met

// query Could you please find out whether `A121F` has AIRE transcriptional activation functional score that meets 0.9 or exceeds it?
// result Condition met

// query Item `K165S` with AIRE transcriptional activation functional score of 0.9 or above?
// result Condition not met

// query Check if AIRE transcriptional activation functional score >= 0.9 (inclusive). Item: `A152E`
// result Condition not met

// query Can `E136G` be said to have AIRE transcriptional activation functional score at or above 0.9?
// result Condition not met

// query Determine whether this variant has AIRE transcriptional activation functional score no lower than 0.9: `P124G`
// result Condition met

// query Does `L177E` have a reported AIRE transcriptional activation functional score of at least 0.9?
// result Condition not met

// query Has `A386L` a recorded AIRE transcriptional activation functional score greater than or equal to 0.9?
// result Condition met

// query Hi, just wondering whether `A6T` shows AIRE transcriptional activation functional score of 0.9 or higher.
// result Condition not met

// query Reported AIRE transcriptional activation functional score at or above 0.9? `S372L`
// result Condition met
